# protocol: activity coefficient (dimensionless); of the first substance listed, at infinite dilution; xn = mol fraction of the nth substance listed
# assayConditions: 290 K; Liquid; x1 = 0
reportedEndpoint: activity coefficient

C=CC [propene] + CCCCCO; 2.6
CCC [propane] + CCCCCO; 3.08
C/C=C/C [(E)-2-butene] + CCC(O)CC; 2.88
C=C(C)C [2-methylpropene] + CCC(O)CC; 2.93
C=CC=C [1,3-butadiene] + CCCC(C)O; 2.68
C=CC=C [1,3-butadiene] + CCCCCO; 2.5
C/C=C/C [(E)-2-butene] + CCCC(C)O; 2.81
C=CCC [1-butene] + CCC(O)CC; 2.96
CC(C)C [2-methylpropane] + CCCC(C)O; 3.49

Origin of values: the NIST ThermoML archive (doi:10.1016/j.jct.2004.11.005)
